- Tested on: Cyclin-dependent kinase 1/cyclin B (starfish)
- ASSAY OVERVIEW: Inhibition of Cyclin-dependent kinase 1-cyclin B at 10 uM
- CONDITIONS: Asteroidea
MEASUREMENT TYPE: inhibition (%)

Please review the entries below; each comes with its answer.
CC[C@H](CO)Nc1nc(OCC2CCCCC2)c2[nH]cnc2n1 43
CC[C@@H](CO)Nc1nc(OCC2CCCCC2)c2[nH]cnc2n1 29
CSc1ccc(Nc2nc(OCC3CCCCC3)c3[nH]cnc3n2)cc1 10

1. Fc1cccc(Nc2nc(OCC3CCCCC3)c3[nH]cnc3n2)c1
2. Fc1nc(OCC2CCCCC2)c2[nH]cnc2n1
Could you tell me which of 1 and 2 has the lower inhibition reading? Return value: the label identifying the chosen record.
2
(2: 7%, 1: 69%)

1. Clc1nc(OCC2CCCCC2)c2[nH]cnc2n1
2. Fc1ccc(Nc2nc(OCC3CCCCC3)c3[nH]cnc3n2)cc1
So which one has the bigger inhibition here, 1 or 2 ? Mark your answer with the label of the selected entry.
2
(2: 20%, 1: 6%)
